- TARGET OR TEST SYSTEM: T1, recombinant canine OX40L ECD-TNCc-HIS protein (canine)
- T1 construct: also called Trimeric OX40L probe (HIS tag); trimeric canine OX40L
- T1 chain: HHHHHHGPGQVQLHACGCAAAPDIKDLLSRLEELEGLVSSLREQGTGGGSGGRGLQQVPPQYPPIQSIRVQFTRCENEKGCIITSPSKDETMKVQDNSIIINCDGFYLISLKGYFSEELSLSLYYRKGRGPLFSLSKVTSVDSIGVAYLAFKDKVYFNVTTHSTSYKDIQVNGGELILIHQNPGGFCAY
- ASSAY DETAILS: SPR Koff (kd1)
MEASUREMENT KIND: koff (s⁻¹)
# value in s⁻¹; strip the unit string

Record excerpt, results attached:
BINDER	koff [s⁻¹]
PMX052 (antibody, V domains shown, also called PMX52) VH: EVQLVESGGDLVKPAGSLRLSCVASGFTFSSYSMSWVRQAPEKGLQLVAGISGGGSRTYYSDAVKGRFTISRDNAKNTVYLQMNSLRAEDTAIYYCAKDGGSWAGYNFDYWGQGTLVTVSS VL: DIVMTQTPPSLSVSPRETASISCKASQSLLHSDGSTYLDWYLQKPGQSPQLLIYLGSNRFTGVSDRFSGSGSGTEFTLRISRVEANDTGVYYCGQGTQLPYTFGQGTELEIK	0.00276
PMX061 (antibody, V domains shown, also called PMX61) VH: EVQLVESGGDLVKPGGSLRLSCVASGFTFSSFPMSWVRQAPGKGLQWVAYINSGGSSTSYADVVKGRFTISRDNAKNTLYLQMNSLRADDTAVYYCARTFPTVATDNWFYYWGQGTLVTVSS VL: SYVLTQLPSKNVTLKQAAHITCGGDNIGSKSVHWYQQKLGQAPVLIIYYDSSRPTGIPERFSGANSGNTATLTISGALAEDEADYYCQVWDSSAKWVFGEGTQLTVL	0.00746
PMX105 (antibody, V domains shown) VH: EVQLVESGGDLVKPGGSLRLSCVASGFTFNTYHMNWVRQAPGKGLHWVAFINSGGSGTSYEDTVQGRFTISRDYAKNTLYLQMNSLRAEDTAVYYCACGSIWTHFDYWGQGTLVTVSS VL: SYVLTQLPSVSVTLRQTAHITCGGDIIGSKSVYWYQQKLGQAPVMIIYRDNNRPTGIPERFSGASSGNTATLTISGSLAEDEADYYCQVWDSRTQALFGGGTHLTVL	0.00174

Problem: Name the recorded koff of the binder listed here: PMX029 (antibody, V domains shown, also called PMX29) VH: EVQLVESGGDLVKPGGSLRLSCVASGFTFSSYHMNWVRQAPGKGLQWVAYINTGGSRTSYADAVKGRFTISRDNAKNTLYLQMNSLRAEDTAVYYCANNYWDNFDSWGQGTLVTVSS VL: SYELTQPPSVNVTLRETAHITCGGDSIGSKYVQWIQQNPGQAPVVIIYKDTNRPTGIPERFSGANSGNTATLTISGALAEDEADYYCQVGDSGTKASVFGGGTHLTVL
Solution: 0.0294

Problem: Name the recorded koff of the item PMX054 (antibody, V domains shown, also called PMX54) VH: EVHLVESGGDLVKPEGSLRLSCVVSGFTFSSYDMSWVRQAPGKGLQWVAYISSDGRSTGYTDAVKGRFTISRDNAKKTLYLQMNSLRSEDTAVYYCAKETPRWGFDYWGQGTLVTVSS VL: SYVLTQLPSVSVTLRQTARITCGGASIGSKNVYWHQQKLGQAPLLIIYDDSSRPSGIPERFSGANSGNTATLTISGALAEDEADYYCQVWDSSTSVFGGGTHLTVL in your answer.
Solution: 0.0345

Problem: Quote koff reported for PMX027 (antibody, V domains shown, also called PMX27) VH: EVHLVESGGDLVKPGGSLRLSCVASGFTFSTYHMSWVRQAPGKGLQWVAFINAGEISTNYADAVKGRFTISRDNAKNIFYLQMNSLRAEDTAVYYCATGHIWIRPFDYWGQGTLVTVSS VL: SYVLTQLPSMSVTLRQTARITCEGNSIGRKRVNWYQQKLGQVPVLIIYDDDSRPSGIPERFSGANSGNTATLTISGALAEDEAEYYCQVWDSSNNWVFGEGTQLTVL please.
Solution: 0.0161

Problem: Provide only the value of recorded koff for PMX063 (antibody, V domains shown, also called PMX63) VH: EVQLVESGGDLVRPGGSLRLSCVASGFTFNNYHMSWVRQAPGKGLQWVAFINSGGSGTTFADVVRGRFTISRDYAKNALYLQMNSLRAEDTAVYYCASGSIWTHFDYWGQGTLVTVSS VL: SFVLTQLPSVSVTLRQTARITCGGDIIGSKNVYWYQQRLGQAPVLIIYRDNNRPTGIPERFSGASSGNTATLTISGALAEDEADYYCQVWDNSNKAMFGGGTHLTVL
Solution: 9.05e-05

Problem: Kindly indicate its recorded koff. Item: PMX040 (antibody, V domains shown, also called PMX40) VH: EVQLVESGGDLVKPGGSLRLSCVASGFTFSNFEMYWVRQAPGKGLEWVARIYESGTTTYHAEGVKGRFTISKDNVKNMAYLQMNSLRAEDTAVYYCTSASSSSWRFDYWGQGTLVTVSS VL: SYVLTQLPSVSVTLRQTARITCGGDSIGRKNVCWFQQKLGQAPILIIYDDSSRPSGIPERFSGANSGNTATLTISGALAEDEADYYCQVWDSSTGIFGGGTHLTVL
Solution: 0.000748

Problem: Name the recorded koff of the binder listed here: PMX104 (antibody, V domains shown) VH: EVQLVESGGDLVRPGGSLRLSCVASGFTFSNYHMSWVRQAPGKGLQWVAFINSGGTSTTYADAVRGRFTTSRDYAKNTLYLQMNSLRAEDTAVYYCTSGSIWTHFDYWGQGTLVTVSS VL: SFVLTQLPSVSVTLRQTARITCGGDIIGSKSVYWFQQKLGQAPILIIYRDDNRPTGIPERFSGASSGNTATLIISGALAEDEAHYYCQVWDSSSKAMFGGGTHLTVL
Solution: 0.00174

Problem: Query koff for PMX049 (antibody, V domains shown, also called PMX49) VH: EVQLVESGGDLVKPGGSLRLSCVASGFTFNNYEMYWVRQAPGKGLEWVARIYESGSTTFSAEAVTGRFTISRDNAKNMVYLQMNSLRAEDTAVYYCASASSSSWRFDYWGQGTLVTVSS VL: SYVLTQLPSVSVTLGQTARITCGGDSIGRKNVCWFQQRLGQAPELIIYDDRSRPSGIPERFSGANSGNTATLTISGALAEDEADYYCQVWDSSTGVFGGGTHLTVL
Solution: 0.00211
